Reference source for all entries: patent US20120129766A1

Target: T1, human β-klotho (human, UniProt Q86Z14 1-1044)
T1 sequence (looked up): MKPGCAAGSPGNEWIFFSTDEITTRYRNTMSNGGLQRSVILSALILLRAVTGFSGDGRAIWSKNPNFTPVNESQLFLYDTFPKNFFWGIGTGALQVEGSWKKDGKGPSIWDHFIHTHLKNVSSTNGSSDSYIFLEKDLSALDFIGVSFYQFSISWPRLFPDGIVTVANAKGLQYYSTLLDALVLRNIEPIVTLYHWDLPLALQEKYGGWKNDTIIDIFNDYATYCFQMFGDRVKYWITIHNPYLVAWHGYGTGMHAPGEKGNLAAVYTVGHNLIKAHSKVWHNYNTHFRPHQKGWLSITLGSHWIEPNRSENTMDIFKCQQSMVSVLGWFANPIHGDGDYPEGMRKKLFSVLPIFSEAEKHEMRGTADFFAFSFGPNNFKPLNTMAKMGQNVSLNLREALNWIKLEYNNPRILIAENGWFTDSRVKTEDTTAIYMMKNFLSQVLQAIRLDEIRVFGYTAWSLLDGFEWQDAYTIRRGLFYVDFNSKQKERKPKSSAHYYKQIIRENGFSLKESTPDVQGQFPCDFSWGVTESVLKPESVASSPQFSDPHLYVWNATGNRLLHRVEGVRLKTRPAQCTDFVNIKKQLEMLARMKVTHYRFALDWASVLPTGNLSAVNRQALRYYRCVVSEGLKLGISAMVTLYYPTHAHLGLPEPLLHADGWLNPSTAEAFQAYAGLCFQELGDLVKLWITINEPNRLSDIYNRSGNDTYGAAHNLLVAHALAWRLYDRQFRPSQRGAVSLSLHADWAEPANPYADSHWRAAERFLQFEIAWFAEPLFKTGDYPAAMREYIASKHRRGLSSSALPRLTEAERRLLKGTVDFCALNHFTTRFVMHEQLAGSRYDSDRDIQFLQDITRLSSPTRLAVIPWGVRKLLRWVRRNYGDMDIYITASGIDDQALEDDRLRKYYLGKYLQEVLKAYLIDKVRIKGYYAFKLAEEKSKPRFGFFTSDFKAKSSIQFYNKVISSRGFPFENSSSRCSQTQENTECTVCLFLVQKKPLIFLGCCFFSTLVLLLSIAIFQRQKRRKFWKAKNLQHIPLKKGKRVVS
Test: cell-based or functional assay
Recorded Fold-WT (EC50 of variant / EC50 of FGF21-WT), one value per entry.
// units = fold; emit number, no label

- binder: "hFGF21(33-209)-V59 (ligand) DSSPLLQFGGQVRQRYLYTDDACQTEAHLEIREDGTVGGAAHQSPESLLELKALKPGVIQILGVKTSRFLCQRPDGALYGSLHFDPEACSFRELLLENGYNVYQSEAHGLPLHLPCNRSPHRDPASQGPARFLPLPGLPPAPPEPPGILAPQPPDVGSSDPLAMVGPSQGRSPSYAS"
  test-value: 1.6
- binder: "hFGF21(33-209)-V14pool 1-N-40 kDa bPEG-AL (ligand, 40 kDa branched PEG (aldehyde reagent) on the N-terminal amine) DSSPLLQFGGQVRQRYLYTDDAQETEAHLEIREDGTVGGAAHQSPESLLELKALKPGVIQILGVKTSRFLCQKPDGALYGSLHFDPEACSFRELLLENGYNVYQSEAHGLPLHLPGNRSPHRDPAPQGPARFLPLPGLPPALPEPPGILAPQPPDVGSSDPLAMVGPSQGRSPSYAS"
  test-value: 22
- binder: "hFGF21(33-209)-V73 (ligand) DSSPLLQFGGQVRQRYLYTDDAQETEAHLEIREDGTVGGAAHQSPESLLELKALKPGVIQILGVKTSRFLCQKPDGALYGSLHFDPEACSFRELLLEEGYNVYQSEAHGLPLHLPGNRSPHRDPAPQGPARFLPLPGLPPALPEPPGILAPQPPDVGSSDPLAMVGPSQGRSPSYAS"
  test-value: 1.7

# query: Fold-WT (EC50 of variant / EC50 of FGF21-WT) of entry hFGF21(33-209)-V52 (ligand) DSSPLVQFGGQVRQRYLYTDDAQQTEAHLEIREDGTVGGAAHQSPESLLQLKALKPGVIQILGVKTSRFLCQKPDGALYGSLHFDPEACSFRELLLENGYNVYQSEAHSLPLHLPGNKSPHRDPASQGPARFLPLPGLPPALPEPPGILAPQPPDVGSSDPLSMVGPSQARSPSYAS
94
